Study target: muscarinic M2 receptor (Rattus norvegicus)
Sequence (P10980 1-466): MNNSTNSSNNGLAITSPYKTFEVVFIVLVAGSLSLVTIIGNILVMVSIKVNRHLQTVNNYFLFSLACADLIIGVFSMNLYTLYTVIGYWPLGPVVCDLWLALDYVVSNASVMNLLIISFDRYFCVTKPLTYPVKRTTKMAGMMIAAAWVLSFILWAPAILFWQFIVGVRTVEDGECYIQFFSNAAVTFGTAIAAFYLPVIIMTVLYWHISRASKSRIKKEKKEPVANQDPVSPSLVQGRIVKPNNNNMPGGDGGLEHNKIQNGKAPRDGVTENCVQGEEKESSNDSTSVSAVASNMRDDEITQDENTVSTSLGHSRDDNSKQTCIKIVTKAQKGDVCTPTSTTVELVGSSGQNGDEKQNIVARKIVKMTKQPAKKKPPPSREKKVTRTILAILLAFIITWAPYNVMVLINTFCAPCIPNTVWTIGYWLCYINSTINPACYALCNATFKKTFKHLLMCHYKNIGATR
pKi: −log10 of the molar value.
compounds and their reported pKi

>  <Compound>
O=C(NC1CCN(Cc2cc(Cl)ccn2)CC1)C(O)(c1ccccc1)C1CCCC1 (stereo not shown) [Example 11]

>  <pKi>
6.14

$$$$
>  <Compound>
O=C(NC1CCN(Cc2cccc(Cl)n2)CC1)C(O)(c1ccccc1)C1CCCC1 (stereo not shown) [Example 10]

>  <pKi>
5.89

$$$$
>  <Compound>
Cc1cccc(CN2CCC(NC(=O)[C@](O)(c3ccccc3)C3CCCC3)CC2)n1.Cl.Cl [Example 1, dihydrochloride]

>  <pKi>
5.96

$$$$
>  <Compound>
COc1ccnc(CN2CCC(NC(=O)C(O)(c3ccccc3)C3CCCC3)CC2)c1 (stereo not shown) [Example 9]

>  <pKi>
5.89

$$$$
